Recorded pKi for the following molecules
target: HIV protease (Human immunodeficiency virus type 1 group M subtype B, UniProt P04585); construct: plasmid containing HIV protease under the control of an inducible T7 promoter; made in house; host or cells: E. coli (inclusion bodies, T7 promoter); test: biochemical; set-up: species or system HIV-1; details: Ki
pKi: −log10 of the molar value.
RESULT TYPE: pKi

[[record]]
molecule = "O=C1N(Cc2cccc(CO)c2)[C@H](CCc2ccccc2)[C@@H](O)[C@@H](Cc2ccccc2)N1Cc1cccc(CO)c1"
tested_system = "HIV protease (Human immunodeficiency virus type 1 group M subtype B, UniProt P04585)"
result = "> 8.00"

[[record]]
molecule = "N#CN=C1N(Cc2cccc(C=NO)c2)C(Cc2ccccc2)C(O)C(O)C(Cc2ccccc2)N1Cc1cccc(C=NO)c1 (centres unmarked)"
tested_system = "HIV protease (Human immunodeficiency virus type 1 group M subtype B, UniProt P04585)"
result = "> 8.00"

[[record]]
molecule = "CCCCN1C(=NC#N)N(CCCC)C(Cc2ccccc2)C(O)C(O)C1Cc1ccccc1 (centres unmarked)"
tested_system = "HIV protease (Human immunodeficiency virus type 1 group M subtype B, UniProt P04585)"
result = "> 8.00"

[[record]]
molecule = "N#CN=C1N(Cc2ccc(CO)cc2)C(Cc2ccccc2)C(O)C(O)C(Cc2ccccc2)N1Cc1ccc(CO)cc1 (centres unmarked)"
tested_system = "HIV protease (Human immunodeficiency virus type 1 group M subtype B, UniProt P04585)"
result = "6.00 to 8.00"

[[record]]
molecule = "CCCCCCN1C(=O)N(CCCCCC)C(Cc2ccccc2)C(O)C(O)C1Cc1ccccc1 (centres unmarked)"
tested_system = "HIV protease (Human immunodeficiency virus type 1 group M subtype B, UniProt P04585)"
result = "> 8.00"

[[record]]
molecule = "CC(C)=CCN1C(=NC#N)N(CC=C(C)C)C(Cc2ccccc2)C(O)C(O)C1Cc1ccccc1 (centres unmarked)"
tested_system = "HIV protease (Human immunodeficiency virus type 1 group M subtype B, UniProt P04585)"
result = "6.00 to 8.00"

[[record]]
molecule = "N#CN=C1N(Cc2ccc(N)cc2)C(Cc2ccccc2)C(O)C(O)C(Cc2ccccc2)N1Cc1ccc(N)cc1 (centres unmarked)"
tested_system = "HIV protease (Human immunodeficiency virus type 1 group M subtype B, UniProt P04585)"
result = "6.00 to 8.00"

[[record]]
molecule = "N#CN=C1N(Cc2cccc(O)c2)C(Cc2ccccc2)C(O)C(O)C(Cc2ccccc2)N1Cc1cccc(O)c1 (centres unmarked)"
tested_system = "HIV protease (Human immunodeficiency virus type 1 group M subtype B, UniProt P04585)"
result = "> 8.00"


====

molecular target: HIV protease (Human immunodeficiency virus type 1 group M subtype B, UniProt P04585); construct: plasmid containing HIV protease under the control of an inducible T7 promoter; made in house; host or cells: E. coli (inclusion bodies, T7 promoter); assay: biochemical; design: species or system HIV-1; details: Table 1a; read-out: Ki
RESULT TYPE: Ki

[[record]]
compound = "CC(C)C(NCCN1C(=O)N(CCO)C(Cc2ccccc2)C(O)C(O)C1Cc1ccccc1)C(=O)OCc1ccccc1 (stereo not shown) [Example 1L]"
result = "> 1 µM"

[[record]]
compound = "CCN1C(=O)N(CC)C(Cc2ccccc2)C(O)C(O)C1Cc1ccccc1 (stereo not shown)"
result = "0.01 to 1 µM"

[[record]]
compound = "C=CCN1C(=O)N(CC=C)C(Cc2ccccc2)C(O)C(O)C1Cc1ccccc1 (stereo not shown) [Example 1D]"
result = "> 1 µM"

[[record]]
compound = "O=C1N(CC2CC2)[C@H](Cc2ccccc2)[C@H](O)[C@@H](O)[C@@H](Cc2ccccc2)N1CC1CC1"
result = "< 0.01 µM"

[[record]]
compound = "C=CCN1C(=O)N(CC2CC2)C(Cc2ccccc2)C(O)C(O)C1Cc1ccccc1 (stereo not shown)"
result = "< 0.01 µM"

[[record]]
compound = "O=C1NC(Cc2ccccc2)C(O)C(O)C(Cc2ccccc2)N1 (stereo not shown)"
result = "> 1 µM"

[[record]]
compound = "CC(C)=CCCC(C)=CCN1C(=O)N(CC=C(C)CCC=C(C)C)C(Cc2ccccc2)C(O)C(O)C1Cc1ccccc1 (stereo not shown)"
result = "> 1 µM"

[[record]]
compound = "C=C(C)CN1C(=O)N(CC(=C)C)C(Cc2ccccc2)C(O)C(O)C1Cc1ccccc1 (stereo not shown)"
result = "< 0.01 µM"

[[record]]
compound = "CCCCN1C(=O)N(CCCC)C(Cc2ccccc2)C(O)C(O)C1Cc1ccccc1 (stereo not shown)"
result = "< 0.01 µM"

[[record]]
compound = "CC(C)C(NCCN1C(=O)N(CCNC(C(=O)OCc2ccccc2)C(C)C)C(Cc2ccccc2)C(O)C(O)C1Cc1ccccc1)C(=O)OCc1ccccc1 (stereo not shown)"
result = "> 1 µM"

